- recorded_conditions: 298.2 K; 101.33 kPa; Liquid; Vibrating tube method
measurement_type: mass density (kg/m3)
// return numeric value only (unit: kg/m3, not printed)

The examples below pair each entry with its known result.
compound | mass density [kg/m3]
CCCCn1cc[n+](C)c1.F[B-](F)(F)F [1-butyl-3-methylimidazolium tetrafluoroborate] | 1201
CCCCn1cc[n+](C)c1.O=S(=O)([O-])C(F)(F)F [1-butyl-3-methylimidazolium trifluoromethanesulfonate] | 1303.8
CCCCn1cc[n+](C)c1.COS(=O)(=O)[O-] [1-butyl-3-methylimidazolium methyl sulfate] | 1205.7

// switching to the query compound
Answer with reported mass density of CCCCn1cc[n+](C)c1.F[P-](F)(F)(F)(F)F [1-butyl-3-methylimidazolium hexafluorophosphate] 1363.9

Taken from the NIST ThermoML archive (doi:10.1016/j.jct.2008.08.010).
